Test system: DU-145 prostate
ASSAY METHOD TEXT: NCI tumour cell line growth inhibition, 48 h
Overview of reported TGI across a group of compounds:
METRIC NAME: TGI

COMPOUND	EXPERIMENTAL RESULT
Oc1c2cccc1Cc1cccc3c1OCCOCCOCCOCCOc1c(cccc1Cc1cccc(c1O)C3)C2	> 100 µM
NC(Cc1nn[nH]n1)C(=O)O (stereo not drawn)	> 100 µM
O=c1c(Cc2ccc(Cl)cc2)nnc2sc(-c3ccc([N+](=O)[O-])cc3)nn12	> 100 µM
C/C(=C(/c1ccc(O)cc1)c1ccc(OCCN2CCCC2)cc1)c1ccccc1	21.4 µM
NC(N)=N/N=C(\c1ccc(Cl)cc1)C1CC1	57.4 µM
Cc1nn(-c2ccccc2)c2c1C1C(=C(c3ccc(Cl)cc3)N2)C(=O)Nc2ccccc21 (stereo not drawn)	> 100 µM
Nc1ncnc2occ(-c3ccc(NC(=O)Nc4cc(C(F)(F)F)cc(C(F)(F)F)c4)cc3)c12	7.34 µM
CC1CN=C(c2cccc(OCc3ccc(COc4cccc(C5=NCC(C)N5)c4)cc3)c2)N1 (stereo not drawn)	> 100 µM
